Test system: MIA PaCa-2
experiment_summary: Antiproliferative activity against human MIA PaCa-2 cells assessed as inhibition of cell proliferation incubated for 72 hrs by SRB assay
Assay type: functional, cell-based
assay_setup: MIA PaCa-2, 72 h
pIC50: −log10 of the molar value.
readout_label: pIC50

smiles_structure: COc1cc2c(O)c3c(c(-c4ccc5c(c4)OCO5)c2cc1OC)C(=O)OC3
pIC50: 6.57

a = COc1cc2c(OCc3cn([C@H]4O[C@@H](C)[C@H](OC(C)=O)[C@@H](OC(C)=O)[C@H]4OC(C)=O)nn3)c3c(c(-c4ccc5c(c4)OCO5)c2cc1OC)C(=O)OC3
b = COc1cc2c(N)c3c(c(-c4ccc5c(c4)OCO5)c2cc1OC)C(=O)OC3
Input line: Could you check which of a and b has a smaller value for pIC50? API: response body contains the label of the selected item.
Output line: a

----------
experiment_summary: Antiproliferative activity against human L02 cells assessed as inhibition of cell proliferation at 1 uM incubated for 72 hrs by SRB assay relative to control
Format: toxicity, cell-based
readout_label: inhibition at 72 h, 1 µM (%)
Note: unit % is implicit; provide only the numeric part.

smiles_structure: COc1cc2c(OCCOCc3cn([C@H]4O[C@@H](C)[C@H](OC(C)=O)[C@@H](OC(C)=O)[C@H]4OC(C)=O)nn3)c3c(c(-c4ccc5c(c4)OCO5)c2cc1OC)C(=O)OC3
measured_number: 16.4
//
smiles_structure: COc1cc2c(NC(=O)[C@H](C)N)c3c(c(-c4ccc5c(c4)OCO5)c2cc1OC)C(=O)OC3
measured_number: 1.54
//
smiles_structure: COc1cc2c(NC(=O)[C@@H](N)COC(C)=O)c3c(c(-c4ccc5c(c4)OCO5)c2cc1OC)C(=O)OC3
measured_number: -0.71
//
smiles_structure: COc1cc2c(OCc3cn([C@H]4O[C@@H](C)[C@H](OC(C)=O)[C@@H](OC(C)=O)[C@H]4OC(C)=O)nn3)c3c(c(-c4ccc5c(c4)OCO5)c2cc1OC)C(=O)OC3
measured_number: 21.6

For COc1cc2c(N)c3c(c(-c4ccc5c(c4)OCO5)c2cc1OC)C(=O)OC3 the molecule record lists inhibition at 72 h, 1 µM as 34.4

For COc1cc2c(OCCOCc3cn([C@H]4O[C@@H](C)[C@H](O)[C@@H](O)[C@H]4O)nn3)c3c(c(-c4ccc5c(c4)OCO5)c2cc1OC)C(=O)OC3 the molecule record lists inhibition at 72 h, 1 µM as 1.57

For CNc1c2c(c(-c3ccc4c(c3)OCO4)c3cc(OC)c(OC)cc13)C(=O)OC2 the molecule record lists inhibition at 72 h, 1 µM as 35.5

----------
experiment_summary: Aqueous solubility of the compound at 1 to 2 mg measured after 24 hrs by HPLC-MS analysis
Format: physicochemical
assay_setup: aqueous (not further specified), dose 1-2 mg
readout_label: solubility at 24 h (µg/mL)

smiles_structure: COc1cc2c(O)c3c(c(-c4ccc5c(c4)OCO5)c2cc1OC)C(=O)OC3
result_units: µg/mL
solubility at 24 h: 0.021

I = COc1cc2c(N)c3c(c(-c4ccc5c(c4)OCO5)c2cc1OC)C(=O)OC3
II = COc1cc2c(N)c3c(c(-c4ccc5c(c4)OCO5)c2cc1OC)C(=O)OC3.Cl
Input line: Could you check which of I and II has a smaller value for solubility at 24 h? API: response body contains the label of the selected item.
Output line: I
